Recorded values, source ChEMBL document CHEMBL2440036.

Assay Name: Half life in human plasma by LC-MS/MS analysis
Format: ADME, cell-free
Listing of recorded half-life by entry.
Answer format: numeric, min implied, no suffix.

>>> reported_result("NCc1ccc(C(=O)Nc2ccncc2F)cc1-c1cccc(C(=O)OCC2CCCC2)c1")
17
>>> reported_result("COC(=O)c1cccc(-c2cc(C(=O)Nc3ccncc3F)ccc2CN)c1")
65
>>> reported_result("CCCOC(=O)c1cccc(-c2cc(C(=O)Nc3ccncc3F)ccc2CN)c1")
19
>>> reported_result("CCCOC(=O)c1cccc(-c2cc(C(=O)Nc3ccncc3)ccc2CN)c1")
18
>>> reported_result("NCc1ccc(C(=O)Nc2ccncc2F)cc1-c1cccc(C(=O)Oc2ccccc2)c1")
7
>>> reported_result("CC(C)OCCOC(=O)c1cccc(-c2cc(C(=O)Nc3ccncc3F)ccc2CN)c1")
6
>>> reported_result("COCCCOC(=O)c1cccc(-c2cc(C(=O)Nc3ccncc3)ccc2CN)c1")
26
>>> reported_result("CCOC(=O)c1cccc(-c2cc(C(=O)Nc3ccncc3)ccc2CN)c1")
41
>>> reported_result("NCc1ccc(C(=O)Nc2ccncc2F)cc1-c1cccc(C(=O)OCC2CCC2)c1")
13
>>> reported_result("NCc1ccc(C(=O)Nc2ccncc2F)cc1-c1cccc(C(=O)OCCO)c1")
81

Task item: Provide only the value of recorded half-life for "CCCCOC(=O)c1cccc(-c2cc(C(=O)Nc3ccncc3)ccc2CN)c1"
Reply: 22

Task item: Provide only the value of recorded half-life for "NCc1ccc(C(=O)Nc2ccncc2F)cc1-c1cccc(C(=O)OCC2CC2)c1"
Reply: 18

Task item: Provide only the value of recorded half-life for "CCCCCCOC(=O)c1cccc(-c2cc(C(=O)Nc3ccncc3)ccc2CN)c1"
Reply: 50

Task item: Provide only the value of recorded half-life for "NCc1ccc(C(=O)Nc2ccncc2)cc1-c1cccc(C(=O)OCC2CCCC2)c1"
Reply: 31
